B1: EEHEE_rd4_0763 (parent)
chain: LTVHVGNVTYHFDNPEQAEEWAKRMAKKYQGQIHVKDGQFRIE

variants of: B1; test: folding stability dG (cDNA display proteolysis); higher = more stable; details: PBS, room temperature
Measured Attribute: folding stability dG (kcal/mol)
Numeric only. Scale: kcal/mol

| Variant Code | Endpoint Result |
| --- | --- |
| V5W | 1.82 |

If you can, please state the reported folding stability dG value of H4V .
1.97

If you can, please state the reported folding stability dG value of K28A .
1.23
